// values below are reported Body weight, Mean
# System: C57BL/6 Diet Induced Obese (DIO) mice
# MEASUREMENT DESCRIPTION: Oral (P.O.) administration study in DIO mice: in vivo activity, body weights
# Set-up: species or system mouse
# CONDITION PARAMETERS: Day 1, DSNG phase, 2 mg/kg, male, N=5
Give just the numeric value; g need not be written.

Here is how some molecules turned out for Body weight, Mean.
• COC(=O)[C@]1(C)CC[C@]2(C)CC[C@]3(C)C4=CC=C5C(=CC(=O)C(O)=C5C)[C@]4(C)CC[C@@]3(C)[C@@H]2C1 [Pristimerin, reference compound] = 34.2
• CC(=O)N[C@]1(C)CC[C@]2(C)CC[C@]3(C)C4=CC=C5C(=CC(=O)C(O)=C5C)[C@]4(C)CC[C@@]3(C)[C@@H]2C1 = 34.5
• CC1=C(O)C(=O)C=C2C1=CC=C1[C@@]2(C)CC[C@@]2(C)[C@@H]3C[C@](C)(N(C)C)CC[C@]3(C)CC[C@]12C = 34.9
• CC1=C(O)C(=O)C=C2C1=CC=C1[C@@]2(C)CC[C@@]2(C)[C@@H]3C[C@](C)(CN(C)C)CC[C@]3(C)CC[C@]12C = 34.6
• CCOC1=C(C)C2=CC=C3[C@@](C)(CC[C@@]4(C)[C@@H]5C[C@](C)(C(N)=O)CC[C@]5(C)CC[C@]34C)C2=CC1=O = 34.2
• CC1=C(O)C(=O)C=C2C1=CC=C1[C@@]2(C)CC[C@@]2(C)[C@@H]3C[C@](C)(N)CC[C@]3(C)CC[C@]12C = 34.4

--- query ---
Exam item: Find the recorded Body weight, Mean belonging to `CC(=O)N(C)C[C@]1(C)CC[C@]2(C)CC[C@]3(C)C4=CC=C5C(=CC(=O)C(O)=C5C)[C@]4(C)CC[C@@]3(C)[C@@H]2C1` and report it.
Marked response: 34.9
